# ASSAY METHOD TEXT: NCI Yeast Anticancer Drug Screen. Data for the cln2 rad14 strain (AID 165);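 also: 0% = growth equal to vehicle treated cultures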
# CONDITION CONTEXT: S. cerevisiae cln2 rad14 strain, at 50.0 µM, hits give high values
# Procedure: Growth inhibition of yeast strains with defined genetic alterations is measured as a screen for potential anti-cancer activity. Selected strains with alterations in DNA damage repair or cell cycle control were exposed to compounds and growth inhibition was measured relative to vehicle treated controls. The strain used in this assay is cln2 rad14
About 79,000 compounds went through this panel and 15% of them were active in at least one assay; those are over-represented in the sample as a whole.
READOUT LABEL: growth inhibition (%)

>  <COMPOUND>
O=c1ccc2ccccc2c2ccccc12

>  <TEST VALUE>
90.4

$$$$
>  <COMPOUND>
O=C(NNc1ccccc1)c1ccc(Cl)c(Cl)c1

>  <TEST VALUE>
0.2

$$$$
>  <COMPOUND>
NCCNCCNc1ccc(NCCNCCN)c2c1C(=O)c1c(O)ccc(O)c1C2=O

>  <TEST VALUE>
7

$$$$
>  <COMPOUND>
CCCCC/C(=C(\C#N)C(=O)OCC)c1ccccc1

>  <TEST VALUE>
-99

$$$$
>  <COMPOUND>
O=C1CSC(c2cccc(Cl)c2)N1c1ccc(-c2ccc(-n3c(-c4ccccc4)nc4ccccc4c3=O)cc2)cc1 (centres undefined)

>  <TEST VALUE>
41.6

$$$$
>  <COMPOUND>
CCCCCCOC(=O)NCCOC(=O)Nc1ccccc1

>  <TEST VALUE>
6.5

$$$$
>  <COMPOUND>
CC(C)(C)c1ccc(NS(=O)(=O)c2ccc(N)cc2)cc1

>  <TEST VALUE>
98.4

$$$$
>  <COMPOUND>
OC(CCNCc1ccccc1)c1ccc2ccccc2c1 (centres undefined)

>  <TEST VALUE>
75.2

$$$$
>  <COMPOUND>
CCn1c(O)c(C=Nc2ccccc2)s/c1=N/Nc1nc(-c2ccccc2)cs1

>  <TEST VALUE>
25.3

$$$$

###

# ASSAY METHOD TEXT: NCI Yeast Anticancer Drug Screen. Data for the wt2 strain (AID 169);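 also: 0% = growth of vehicle-treated yeast cultures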
# CONDITION CONTEXT: S. cerevisiae wt2 strain growth inhibition; at 3.7 µM; hits give high values
About 79,000 compounds went through this panel and 15% of them were active in at least one assay; those are over-represented in the sample as a whole.
Measured growth inhibition, listed per entry for reference.
READOUT LABEL: growth inhibition (%)

>  <MOLECULE>
CC(=O)ON=C1C=CC(=C(C#N)c2ccc(Cl)cc2)C=C1

>  <READOUT LABEL>
growth inhibition

>  <TEST VALUE>
3

$$$$
>  <MOLECULE>
CCOC(=O)C(C(=O)OCC)=P(c1ccccc1)(c1ccccc1)c1ccccc1

>  <READOUT LABEL>
growth inhibition

>  <TEST VALUE>
-3

$$$$
>  <MOLECULE>
OC(CCNCc1ccccc1)c1ccc2ccccc2c1 (stereo not drawn)

>  <READOUT LABEL>
growth inhibition

>  <TEST VALUE>
65

$$$$
>  <MOLECULE>
Cc1ccc(CC2(OCCN(C)C)CCC(C(C)(C)C)CC2)cc1 (stereo not drawn)

>  <READOUT LABEL>
growth inhibition

>  <TEST VALUE>
-8

$$$$
>  <MOLECULE>
CCCCOC(=O)Nc1ccc(C)c(NC(=O)OCCCC)c1

>  <READOUT LABEL>
growth inhibition

>  <TEST VALUE>
-4

$$$$
>  <MOLECULE>
COc1ccc([N+](=O)[O-])c2c(NCCCN(C)C)c3ccccc3nc12

>  <READOUT LABEL>
growth inhibition

>  <TEST VALUE>
2

$$$$
>  <MOLECULE>
O=C(O)c1ccccc1/C=N/N=C1c2ccccc2-c2ccccc21

>  <READOUT LABEL>
growth inhibition

>  <TEST VALUE>
0

$$$$
>  <MOLECULE>
NC1CCCCC1N.Nc1c(N=Nc2ccc(-c3ccc(N=Nc4cc(S(=O)(=O)[O-])c5ccccc5c4N)cc3)cc2)cc(S(=O)(=O)[O-])c2ccccc12.[OH3+].[OH3+].[Pt+4]

>  <READOUT LABEL>
growth inhibition

>  <TEST VALUE>
10

$$$$
>  <MOLECULE>
OC1(c2ccccc2)CCCc2ccc(Cl)cc21 (stereo not drawn)

>  <READOUT LABEL>
growth inhibition

>  <TEST VALUE>
-2

$$$$
>  <MOLECULE>
O=C1OC(C2=CC(=O)c3ccccc3C2=O)C(Cl)=C1Cl (stereo not drawn)

>  <READOUT LABEL>
growth inhibition

>  <TEST VALUE>
1

$$$$
>  <MOLECULE>
N#CC(C#N)=NNc1ccc(S(=O)(=O)O)cc1

>  <READOUT LABEL>
growth inhibition

>  <TEST VALUE>
-18

$$$$
>  <MOLECULE>
O=[N+]([O-])c1cc[n+]([O-])cc1

>  <READOUT LABEL>
growth inhibition

>  <TEST VALUE>
-2

$$$$
>  <MOLECULE>
CCCCCCSc1ncnc2[nH]ncc12

>  <READOUT LABEL>
growth inhibition

>  <TEST VALUE>
6

$$$$
>  <MOLECULE>
O=C(O)Cc1cc(F)ccc1C(=O)O

>  <READOUT LABEL>
growth inhibition

>  <TEST VALUE>
6

$$$$
>  <MOLECULE>
Cn1c(-c2ccc(/C=N\N3CCN(/N=C/c4ccc(-c5c[n+]6ccccc6n5C)cc4)CC3)cc2)c[n+]2ccccc12

>  <READOUT LABEL>
growth inhibition

>  <TEST VALUE>
-36

$$$$
>  <MOLECULE>
CCCC(=O)Oc1c(C)cc([N+](=O)[O-])cc1[N+](=O)[O-]

>  <READOUT LABEL>
growth inhibition

>  <TEST VALUE>
4

$$$$
>  <MOLECULE>
CC1=CC(=C(c2ccc(N)cc2)c2ccc(N)cc2)C=CC1=N

>  <READOUT LABEL>
growth inhibition

>  <TEST VALUE>
-13

$$$$
>  <MOLECULE>
NC1=NNC2(C(N)=N1)c1ccccc1-c1ccccc12

>  <READOUT LABEL>
growth inhibition

>  <TEST VALUE>
-16

$$$$
>  <MOLECULE>
Nc1n[n+]([O-])c2ccc(Cl)cc2[n+]1[O-]

>  <READOUT LABEL>
growth inhibition

>  <TEST VALUE>
30

$$$$
>  <MOLECULE>
CN(C)CCNC(=O)c1cccc2cc([N+](=O)[O-])ccc12

>  <READOUT LABEL>
growth inhibition

>  <TEST VALUE>
-10

$$$$
>  <MOLECULE>
O=c1c2ccccc2nc(-c2ccccc2)n1O

>  <READOUT LABEL>
growth inhibition

>  <TEST VALUE>
55

$$$$
>  <MOLECULE>
CC[N+]1(C)CCC(O)(c2ccc(OC)cc2)C(C(=O)c2ccc(OC)cc2)C1 (stereo not drawn)

>  <READOUT LABEL>
growth inhibition

>  <TEST VALUE>
-15

$$$$
>  <MOLECULE>
Cc1c(C(C)C)cc(OCCO)cc1C(C)C

>  <READOUT LABEL>
growth inhibition

>  <TEST VALUE>
-4

$$$$
>  <MOLECULE>
NC(N)=NS(=O)(=O)c1ccc(Nc2c3ccccc3nc3c(C(=O)NCCO)cccc23)cc1

>  <READOUT LABEL>
growth inhibition

>  <TEST VALUE>
0

$$$$
>  <MOLECULE>
COc1ccc(C(=O)Oc2ccccc2Br)cc1

>  <READOUT LABEL>
growth inhibition

>  <TEST VALUE>
-13

$$$$
>  <MOLECULE>
Cc1cccc2c1nc1ccc(Cl)cc1[n+]2C

>  <READOUT LABEL>
growth inhibition

>  <TEST VALUE>
2

$$$$
>  <MOLECULE>
CN(C)c1ccc(C2CC(C)(O)Oc3cc4c(cc32)OCO4)cc1 (stereo not drawn)

>  <READOUT LABEL>
growth inhibition

>  <TEST VALUE>
-2

$$$$
>  <MOLECULE>
COC(=O)Oc1cc(Cl)c(Cl)cc1Cl

>  <READOUT LABEL>
growth inhibition

>  <TEST VALUE>
-2

$$$$
>  <MOLECULE>
O=C1CC(=O)c2ccccc21

>  <READOUT LABEL>
growth inhibition

>  <TEST VALUE>
8

$$$$
>  <MOLECULE>
Nc1ncnc2c1ncn2C1OC(CO)CC1O (stereo not drawn)

>  <READOUT LABEL>
growth inhibition

>  <TEST VALUE>
-3

$$$$
>  <MOLECULE>
CC1=C(SCc2ccccc2)C(=O)c2ccccc2C1=O

>  <READOUT LABEL>
growth inhibition

>  <TEST VALUE>
-40

$$$$
>  <MOLECULE>
CCCCCCOC(=O)NCCOC(=O)Nc1ccccc1

>  <READOUT LABEL>
growth inhibition

>  <TEST VALUE>
-1

$$$$
>  <MOLECULE>
CCCCN(CCCC)CCC(O)c1cc2c(Cl)cc(Cl)cc2c2cc(C(F)(F)F)ccc12 (stereo not drawn)

>  <READOUT LABEL>
growth inhibition

>  <TEST VALUE>
18

$$$$
>  <MOLECULE>
Cc1c(-c2ccccn2)ccc2ccccc12

>  <READOUT LABEL>
growth inhibition

>  <TEST VALUE>
7

$$$$
>  <MOLECULE>
CN(C)N=Nc1ccccc1C(=O)NC#N

>  <READOUT LABEL>
growth inhibition

>  <TEST VALUE>
-1

$$$$
>  <MOLECULE>
Cc1cc2c3ccccc3c3ccccc3c2nn1

>  <READOUT LABEL>
growth inhibition

>  <TEST VALUE>
-3

$$$$
>  <MOLECULE>
CC(C)/C(Cl)=N\OC(=O)Nc1ccc(F)cc1F

>  <READOUT LABEL>
growth inhibition

>  <TEST VALUE>
0

$$$$
>  <MOLECULE>
CCC1(OC(=O)CN2CCN(CCO)CC2)C(=O)OCc2c1cc1n(c2=O)Cc2cc3ccccc3nc2-1 (stereo not drawn)

>  <READOUT LABEL>
growth inhibition

>  <TEST VALUE>
9

$$$$
>  <MOLECULE>
O=[N+]([O-])c1ccc(N/N=C/Cc2ccccc2)c([N+](=O)[O-])c1

>  <READOUT LABEL>
growth inhibition

>  <TEST VALUE>
5

$$$$
>  <MOLECULE>
COc1ccc(/C=C/C(=O)c2ccccc2)cc1OC

>  <READOUT LABEL>
growth inhibition

>  <TEST VALUE>
-33

$$$$
>  <MOLECULE>
OCc1ccccc1Cc1ccccc1

>  <READOUT LABEL>
growth inhibition

>  <TEST VALUE>
0

$$$$
>  <MOLECULE>
CCC(C)(C)c1ccc(Oc2cccc(C(=O)O)c2)cc1

>  <READOUT LABEL>
growth inhibition

>  <TEST VALUE>
-4

$$$$
>  <MOLECULE>
O=[N+]([O-])c1cc(Cl)cnc1Br

>  <READOUT LABEL>
growth inhibition

>  <TEST VALUE>
1

$$$$
>  <MOLECULE>
O=C(O)C1CC(c2ccccc2)=NN1c1ccccc1 (stereo not drawn)

>  <READOUT LABEL>
growth inhibition

>  <TEST VALUE>
-46

$$$$
>  <MOLECULE>
O=C(CC(=O)n1nc(-c2ccccc2)c(N=Nc2ccc(Cl)cc2)c1-c1ccccc1)Nc1cccc(Cl)c1

>  <READOUT LABEL>
growth inhibition

>  <TEST VALUE>
-3

$$$$
>  <MOLECULE>
O=C1Nc2ccccc2/C1=C/c1ccccc1

>  <READOUT LABEL>
growth inhibition

>  <TEST VALUE>
-3

$$$$
>  <MOLECULE>
COc1ccc(N=CN(C)C)c(C)c1

>  <READOUT LABEL>
growth inhibition

>  <TEST VALUE>
-39

$$$$
>  <MOLECULE>
Cc1nc2ccccc2nc1NNc1ccccc1

>  <READOUT LABEL>
growth inhibition

>  <TEST VALUE>
5

$$$$
